Data credit: paper PMC2551328

# TESTED ON: M.tb PGDH D463A (Mycobacterium tuberculosis, UniProt P9WNX3, D462A)
REPORTED ENDPOINT: Ki (µM)
Just the number please, in µM, no unit attached.

Prompt: Give the reported value of Ki for this record: O=C(O)C(=O)COP(=O)(O)O [HPAP, hydroxypyruvic acid phosphate]
Response: 1090

###

# TESTED ON: M.tb PGDH G317, 318V (Mycobacterium tuberculosis, UniProt P9WNX3, G316V/G317V)
REPORTED ENDPOINT: pKi
Notebook: values listed as pKi are -log10 of the concentration (mol/L).

Prompt: Provide pKi, system M.tb PGDH G317, 318V (Mycobacterium tuberculosis, UniProt P9WNX3, G316V/G317V), entry O=C(O)C(=O)COP(=O)(O)O [HPAP, hydroxypyruvic acid phosphate]
Response: 2.79
